- TARGET SYSTEM: UniProt:P98170
- Sequence (P98170 whole entry): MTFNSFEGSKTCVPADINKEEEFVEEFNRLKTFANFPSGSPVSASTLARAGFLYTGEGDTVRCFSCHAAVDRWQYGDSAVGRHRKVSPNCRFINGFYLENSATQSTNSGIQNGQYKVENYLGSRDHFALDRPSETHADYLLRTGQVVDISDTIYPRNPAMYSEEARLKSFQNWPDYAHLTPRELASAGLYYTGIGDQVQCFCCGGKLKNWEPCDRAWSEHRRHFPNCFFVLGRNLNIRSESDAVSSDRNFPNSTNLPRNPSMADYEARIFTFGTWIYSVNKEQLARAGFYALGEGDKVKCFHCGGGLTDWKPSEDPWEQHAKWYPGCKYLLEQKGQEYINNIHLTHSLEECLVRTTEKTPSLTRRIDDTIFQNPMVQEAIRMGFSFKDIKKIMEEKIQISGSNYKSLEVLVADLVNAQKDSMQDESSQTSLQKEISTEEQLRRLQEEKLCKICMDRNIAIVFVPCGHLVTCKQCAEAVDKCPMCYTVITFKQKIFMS
- METHOD: Induction of XIAP degradation in smac mimetic-resistant human MDA-MB-453 cells at 5 uM measured after 24 hrs by Western blot analysis
The source made the active and inactive calls. The calls are words filed in the database; no cut-off is given here.
Just give me one of these, please: true (1) = active, false (0) = inactive

CC[C@H](NC)C(=O)N[C@@H]1C(=O)N2[C@@H](CC[C@@H]1CNC(=O)CCCCCCCCCCNC(=O)CN(Cc1ccccn1)Cc1ccccn1)CC[C@H]2C(=O)NC(c1ccccc1)c1ccccc1 = false (0)
CC[C@H](NC)C(=O)N[C@@H]1C(=O)N2[C@@H](CC[C@@H]1CNC(=O)c1ccccc1)CC[C@H]2C(=O)NC(c1ccccc1)c1ccccc1 = false (0)
CC[C@H](NC)C(=O)N[C@@H]1C(=O)N2[C@@H](CC[C@@H]1CNC(=O)COCCOCCNC(=O)CN(Cc1ccccn1)Cc1ccccn1)CC[C@H]2C(=O)NC(c1ccccc1)c1ccccc1 = true (1)

Which outcome was assigned to "CC[C@H](NC)C(=O)N[C@@H]1C(=O)N2[C@@H](CC[C@@H]1CNC(=O)c1ccccc1)CC[C@H]2C(=O)N[C@H](C(=O)NCCN(Cc1ccccn1)Cc1ccccn1)c1ccccc1" in this test?
false (0)
